# protocol details: binders of probe aFGF10 on microarray, primary screen, stem cell growth factor project, biochemical, small-molecule microarray, fluorescence 635/667 (AID 1071);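 note: score merges 667 nm spot intensity and signal to noise from triplicate slides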
# measurement context: higher = more signal
Each entry falls into one class according to its composite z-score; the ranges are class 1 = under 0.3, class 2 = from 0.3 up to 0.8, class 3 = 0.8 and over

Worked set:
[
  {
    "compound": "O=C(NCCN1CCOCC1)[C@@H]1c2ccccc2C(=O)N(CC23CC4CC(CC(C4)C2)C3)[C@H]1c1ccc(CO)cc1",
    "answer label": "class 2"
  },
  {
    "compound": "COC(=O)C1=CC(c2ccc(CO)cc2)=CC(C2CC2)N(Cc2cc3c(cc2Br)OCO3)C=C1C(=O)OC (stereo not given)",
    "answer label": "class 3"
  },
  {
    "compound": "C=C(COC)C(=O)CC[C@@H](OC(=O)c1ccccc1-c1ccccc1C(=O)O)c1ccccc1OCCO",
    "answer label": "class 3"
  },
  {
    "compound": "C=C[C@H](OC)[C@@H](O)c1ccc(OC)c(O)c1",
    "answer label": "class 1"
  },
  {
    "compound": "COc1ccc([Si](C)(C)[C@H]2[C@H](CC(=O)N(CCO)Cc3ccccc3)O[C@@]3(C(=O)N(Cc4ccc(N5C(=O)c6cccc7cccc5c67)cc4)c4ccccc43)[C@@H]2C)cc1",
    "answer label": "class 2"
  },
  {
    "compound": "Cc1cccc([C@H]2C[C@H]3C(Br)=C[C@@]2(CO)C(=O)[C@]32CO2)c1",
    "answer label": "class 1"
  }
]

Q: # bin lookup: classify C=CCOC(=O)[C@@H]1[C@H]2C(=O)O[C@H](c3ccccc3)[C@H](c3ccccc3)N2[C@H](c2ccc(OCCOC(=O)[C@H]3C[C@H]4C(=O)N[C@@H](CCCCN(C)C)C(=O)N4[C@H]3c3cccc(OCCO)c3)cc2)[C@@]12C(=O)Nc1ccccc12 by its composite z-score
Result: class 1

Q: # bin lookup: classify C=CC[C@]12N=C(c3ccc(OCCCO)cc3)O[C@H]1c1ccccc1N(CCC)C2=O by its composite z-score
Result: class 2

Q: # bin lookup: classify [N-]=[N+]=Nc1ccccc1C[C@@]1(C(=O)NCC(O)CO)N=C(c2ccc(OCCCO)cc2)O[C@@H]1c1ccccc1N=[N+]=[N-] (stereo not given in full) by its composite z-score
Result: class 2

Q: # bin lookup: classify C=CCOC(=O)[C@@H]1[C@H]2C(=O)O[C@H](c3ccccc3)[C@H](c3ccccc3)N2[C@H](c2ccc(OCCOC(=O)[C@@H]3C[C@@H]4C(=O)N[C@@H](CC(C)C)C(=O)N4[C@@H]3c3ccc(O)cc3)cc2)[C@@]12C(=O)Nc1ccc(I)cc12 by its composite z-score
Result: class 2

Q: # bin lookup: classify CC(=O)NCCCC[C@@H]1NC(=O)[C@H]2C[C@@H](C(=O)O)[C@@H](c3cccc(OCCO)c3)N2C1=O by its composite z-score
Result: class 3

Q: # bin lookup: classify CC(C)C[C@@H]1NC(=O)[C@@H]2C[C@H](C(=O)NCCCCCCNC(=O)CS)[C@H](c3ccc(O)cc3)N2C1=O by its composite z-score
Result: class 3

Q: # bin lookup: classify C=C(C(=O)CC[C@@H](OC(=O)c1ccccc1-c1ccccc1C(=O)O)c1cccc(OCCO)c1)C(C)C by its composite z-score
Result: class 3

Q: # bin lookup: classify OCCCc1cc[n+](Cc2cc3c(cc2Br)OCO3)cc1 by its composite z-score
Result: class 1

###

# protocol details: basal MM1S mitochondrial membrane potential changes, profiling panel, cell-based, JC-1 fluorescence, 24 h, 100 nL compound (AID 1170); note: test concentration not given here
# measurement context: higher = more signal
Returns one of rule met or rule not met; rule met when z-score is >= -0.4.

Worked set:
[
  {
    "molecule": "CCCCC(=C=CC[C@H](O)c1cccc(OCCO)c1)C[C@H](O)c1cc(Cl)cc(Cl)c1O",
    "answer label": "rule not met"
  },
  {
    "molecule": "O=C(O)C1=CC[C@H]2C(=O)N(c3ccccc3)C(=O)[C@@H]12",
    "answer label": "rule not met"
  },
  {
    "molecule": "C[C@H]1C2[C@H](Cc3ccccc3)NC(=O)[C@]23C(=O)N[C@@H](Cc2ccccc2)C(=O)N2CCC[C@H]2C(=O)NC/C=C/CC/C=C/C3[C@@H]2O[C@]12C (stereo partly drawn)",
    "answer label": "rule met"
  },
  {
    "molecule": "C=C(CCCC)C(=O)CC[C@@H](OC(C)=O)c1ccc(OCCO)cc1",
    "answer label": "rule met"
  },
  {
    "molecule": "CC(C)c1ccc(NN2C(C(O)c3ccccc3)C=CC3C(=O)N(c4ccccc4)C(=O)C32)cc1 (stereo not drawn)",
    "answer label": "rule not met"
  },
  {
    "molecule": "COCCOC(=O)N1C(=O)[C@@]2(c3cc(C#CCNC(N)=O)ccc31)[C@H](c1ccccc1OCCO)N1[C@H](c3ccccc3)[C@H](c3ccccc3)OC(=O)[C@H]1[C@@H]2C(=O)N1CCCCCCC1",
    "answer label": "rule not met"
  }
]

Q: # check: z-score of O=C1C2C=CC(C(O)C3CC=CCC3)N(Nc3ccc([N+](=O)[O-])cc3)C2C(=O)N1c1ccccc1 (stereo not drawn) is greater than or equal to -0.4
Result: rule met

Q: # check: z-score of CCCCC(=C=CC[C@@H](O)c1ccccc1OCCO)C[C@@H](O)c1ccccn1 is greater than or equal to -0.4
Result: rule met

###

# protocol details: binders of probe aFGF2 on microarray, primary screen, stem cell growth factor project, biochemical, small-molecule microarray, fluorescence 635/667 (AID 1067);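 note: measures binding of biotinylated aFGF2 protein to printed compounds on slides; z-score merges feature fluorescence and signal-to-noise across triplicate slides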
# measurement context: higher = more signal
Quick reference: composite z-score of the listed items.
Form rule: numeric answer, no unit written next to it.

Worked cases, composite z-score given:
[
  {
    "molecule": "Cc1ccc(S[C@]2(C(=O)NCC(C)C)CC(=O)N(C(C)C)[C@@H]2c2ccc(CO)cc2I)cc1",
    "measurement name": "composite z-score",
    "result number": 0.0519
  },
  {
    "molecule": "O=C1O[C@H](c2ccccc2)[C@H](c2ccccc2)N2[C@H]1[C@@H](C(=O)N1CCCCCCC1)[C@]1(C(=O)Nc3ccc(C#CCCO)cc31)[C@H]2c1ccc(O)cc1",
    "measurement name": "composite z-score",
    "result number": 0.978
  },
  {
    "molecule": "O=C1C2C=CC(C(O)C(c3ccccc3)c3ccccc3)N(Nc3ccccc3F)C2C(=O)N1c1ccccc1 (stereo not given)",
    "measurement name": "composite z-score",
    "result number": 0.11
  },
  {
    "molecule": "C=C(/C=C\\CNS(=O)(=O)c1ccc(C)cc1)[C@H](O)[C@H]1CCCN1S(=O)(=O)c1ccccc1[N+](=O)[O-]",
    "measurement name": "composite z-score",
    "result number": -0.114
  },
  {
    "molecule": "COC(=O)[C@@]1(Cc2ccccc2)[C@H]2c3cc(C(=O)N(C)C)n(Cc4nc5ccccc5[nH]4)c3C[C@H]2CN1C(=O)c1ccccc1",
    "measurement name": "composite z-score",
    "result number": 0.214
  },
  {
    "molecule": "COc1ccc(CCNC(=O)[C@@H]2c3ccccc3C(=O)N(Cc3cc(F)cc(C(F)(F)F)c3)[C@H]2c2ccc(CO)cc2)cc1",
    "measurement name": "composite z-score",
    "result number": 0.272
  }
]

Q: Specify composite z-score for C=C(COC)C(=O)CC[C@H](OC(C)=O)c1ccc(CO)o1 and stop.
Result: -0.148

Q: Specify composite z-score for CCCCCCc1nc(Cc2cc(OC)c(OC)c(OC)c2)c(C)c2c1[Si](C(C)C)(C(C)C)OC2 and stop.
Result: -0.0328

Q: Specify composite z-score for CS(=O)(=O)CCOC(=O)C1=CC(CCCO)=CC(C2CC2)N(Cc2sc3ccccc3c2Cl)C=C1C(=O)OCCS(C)(=O)=O (stereo not given) and stop.
Result: 0.0498

Q: Specify composite z-score for Cc1c(NC(=O)/C(C#N)=C/C=C/c2ccc([N+](=O)[O-])cc2)c(=O)n(-c2ccccc2)n1C and stop.
Result: -0.0718

Q: Specify composite z-score for CC(C)(C)OC(=O)CC[C@@]1(C(=O)N2CCOCC2)N=C(c2ccc(OCCCO)cc2)O[C@@H]1c1ccccc1CN=[N+]=[N-] and stop.
Result: 0.254

Q: Specify composite z-score for CCCCCCCCCCC(O)C1C=CC2C(=O)N(C)C(=O)C2N1Nc1ccccc1 (stereo not given) and stop.
Result: -0.229

Q: Specify composite z-score for O=C1C[C@@](C(=O)NCC(F)(F)F)(c2ccc([N+](=O)[O-])cc2)[C@@H](c2ccc(CO)cc2I)N1CC12CC3CC(CC(C3)C1)C2 and stop.
Result: -0.106

Q: Specify composite z-score for O=C1O[C@H](c2ccccc2)[C@H](c2ccccc2)N2[C@H]1[C@@H](C(=O)O)[C@]1(C(=O)Nc3ccccc31)[C@H]2c1ccc(OCCO)cc1 and stop.
Result: -0.0112

Q: Specify composite z-score for CC(C)C[C@@H]1NC(=O)[C@H]2C[C@@H](C(=O)O)[C@@H](c3cccc(OCCO)c3)N2C1=O and stop.
Result: -0.083

Q: Specify composite z-score for CCCNC(=O)[C@@]1(Sc2ccc(C)cc2)CC(=O)N(Cc2cc(C(F)(F)F)cc(C(F)(F)F)c2)[C@@H]1c1ccc(CO)cc1 and stop.
Result: -0.0363

Q: Specify composite z-score for C=C(CCCC)C(=O)CC[C@H](OC(=O)c1ccccc1-c1ccccc1C(=O)O)c1cccc(OCCO)c1 and stop.
Result: -0.133

Q: Specify composite z-score for CO[C@H]1O[C@H](CO)[C@@H](OC(=O)Nc2cccc(F)c2)[C@H](OC(=O)c2cc3ccccc3[nH]2)[C@H]1OC(=O)c1cc2ccccc2[nH]1 and stop.
Result: -0.0355

Q: Specify composite z-score for CC(C)N1C(=O)[C@@]2(Cc3ccccc31)c1ccccc1C(=O)N(Cc1ccccc1)[C@H]2c1ccc(CO)cc1 and stop.
Result: -0.204

Q: Specify composite z-score for COC(=O)c1ccc(OC)c(/C=C\CC(OC(=O)c2ccncc2)c2ccccc2)c1 (stereo not given) and stop.
Result: -0.107

Q: Specify composite z-score for O=C1OCC=C[C@H]2OC34C=CCN(Cn5nnc6ccccc65)C(=O)[C@H]3N(CCO)C(=O)[C@@H]4[C@@H]12 (stereo not given in full) and stop.
Result: -0.129

Q: Specify composite z-score for Cc1ccc(S[C@]2(C(=O)NC(C)C)CC(=O)N(Cc3ccccc3)[C@@H]2c2ccc(CO)cc2I)cc1 and stop.
Result: -0.0303

Q: Specify composite z-score for C=CCNC(=O)[C@H]1[C@@H]2C(=O)O[C@@H](c3ccccc3)[C@@H](c3ccccc3)N2[C@@H](c2ccc(O)cc2)[C@]12C(=O)Nc1ccc(C#CCC(C(=O)OC)C(=O)OC)cc12 and stop.
Result: -0.0878

Q: Specify composite z-score for CC(=O)NCCCC[C@@H]1NC(=O)[C@H]2C[C@@H](C(=O)NCCCCCN)[C@@H](c3ccc(O)cc3)N2C1=O and stop.
Result: 0.007
